Cited source: paper PMC10244618

B1: NF2 (merlin) isoform 7, human, full length (507 aa, lacks exons 2-3 = isoform-1 residues 39-121; exon-16 C-terminus), P35240-4 (parent)
chain: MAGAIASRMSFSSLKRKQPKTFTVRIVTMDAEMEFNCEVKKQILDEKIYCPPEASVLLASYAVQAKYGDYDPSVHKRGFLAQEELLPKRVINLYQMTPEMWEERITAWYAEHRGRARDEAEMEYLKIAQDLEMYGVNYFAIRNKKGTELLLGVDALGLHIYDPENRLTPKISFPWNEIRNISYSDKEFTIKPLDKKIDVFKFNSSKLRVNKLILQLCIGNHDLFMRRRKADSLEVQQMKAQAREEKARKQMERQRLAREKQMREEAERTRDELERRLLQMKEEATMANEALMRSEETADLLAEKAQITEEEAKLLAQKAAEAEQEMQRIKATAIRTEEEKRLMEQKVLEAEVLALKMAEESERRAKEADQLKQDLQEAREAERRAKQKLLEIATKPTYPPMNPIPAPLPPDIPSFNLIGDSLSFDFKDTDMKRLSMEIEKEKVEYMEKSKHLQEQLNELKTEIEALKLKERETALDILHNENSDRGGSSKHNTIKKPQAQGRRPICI

Variants of: B1
Assay: reverse yeast two-hybrid deep mutational scan (rY2H-seq): NF2 isoform 7 mutant library as bait mated with wild-type prey strains; selection on medium lacking adenine for non-interacting pairs; NextSeq paired-end sequencing; enrichment vs …
Conditions: with PIK3R3 (phosphatidylinositol 3-kinase regulatory subunit gamma), Q92569; yeast diploids after mating (RBait_S3 x RPrey_S3), 30 °C, selection for reporter genes on NB agar; human tyrosine kinase ABL2 co-expressed as the active kinase …; HIGHER = WEAKER BINDING (the opposite of display enrichments): higher = stronger loss of interaction: reverse Y2H selects yeast in which bait and prey do NOT interact (growth without adenine), so a …; hits-only table; scale: rY2H score; numbering: uniprot, sequence starts at 1
Response key: Y means enrichment >= 3; N means enrichment < 3.

Item `T147A` with enrichment of 3 or above?
Y

Item `Y161A` with enrichment of 3 or above?
N
